Origin of values: patent US9265773B2

system: HCV replicon genotype 1a; experiment: microbe, parasite or virus in culture; type: cell-based; conditions: genotype 1a replicon cells, incubated 96 hours, NS3/4A ELISA readout
# note: boundary value 3 nM maps to condition not met; IC50 below it maps to condition met

Field: example entries. Status: answers known.
molecule	assigned_category
CNC(=O)c1c(-c2ccc(F)cc2)oc2cc(N(C)S(C)(=O)=O)c(-c3ccc4c(n3)-c3cc5c(F)cccc5n3C(COC)O4)cc12 (stereo not shown) [Compound 96]	condition not met
CNC(=O)c1c(-c2ccc(F)cc2)oc2cc(N(C)S(C)(=O)=O)c(-c3ccc4c(n3)-c3cc5c(F)cccc5n3C(CCO)O4)cc12 (stereo not shown) [Compound 100]	condition not met

Input line: is_below(IC50, 3 nM) for CCNC(=O)C1Oc2ccc(-c3cc4c(C(=O)NC)c(-c5ccc(F)cc5)oc4cc3N(C)S(C)(=O)=O)nc2-c2cc3c(F)cccc3n21 (stereo not shown) [Compound 107] ?
Output line: condition met

Input line: Try the molecule CNC(=O)c1c(-c2ccc(F)cc2)oc2cc(N(C)S(C)(=O)=O)c(-c3ccc4c(n3)-c3cc5c(F)cccc5n3C(CN)O4)cc12 (stereo not shown) [Compound 115]
Output line: condition not met

Input line: What do you get for CNC(=O)c1c(-c2ccc(F)cc2)oc2cc(N(C)S(C)(=O)=O)c(-c3ccc4c(n3)-c3cc5c(F)cccc5n3C(C(N)=O)O4)cc12 (stereo not shown) [Compound 105] ?
Output line: condition met

Input line: Would you kindly repeat that for CNC(=O)c1c(-c2ccc(F)cc2)oc2cc(N(C)S(C)(=O)=O)c(-c3ccc4c(n3)-c3cc5c(F)cccc5n3C(C)O4)cc12 (stereo not shown) [Compound 38] ?
Output line: condition not met

Input line: Follow-up entry: CNC(=O)c1c(-c2ccc(F)cc2)oc2cc(N(C)S(C)(=O)=O)c(-c3ccc4c(n3)-c3cc5c(F)cccc5n3C(CNC(C)=O)O4)cc12 (stereo not shown) [Compound 129]
Output line: condition met
